Ref: patent US20250277029A1

- ASSAYED SYSTEM: empty nanodisc (Empty ND)
- Sequence (P02647 79-267): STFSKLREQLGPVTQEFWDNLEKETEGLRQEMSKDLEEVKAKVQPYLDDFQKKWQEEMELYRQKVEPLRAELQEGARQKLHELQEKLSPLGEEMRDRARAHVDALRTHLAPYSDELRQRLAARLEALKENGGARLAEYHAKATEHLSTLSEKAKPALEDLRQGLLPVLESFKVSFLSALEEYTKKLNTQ
- METHOD NOTES: flow cytometry, yeast-displayed Fab, 50 nM Empty ND, after background subtraction
MEASURE: Relative binding fold change compared to LIBC528116 (Fab) (fold)
Use fold as the unit, but write only the number.

Examples with their reported Relative binding fold change compared to LIBC528116 (Fab) follow.
# Relative binding fold change compared to LIBC528116 (Fab) lookup, item LIBC680574-1 (yeast-displayed Fab) (Fab, V domains shown) VH: QVQLQESGPGLVKPSQTLSLTCTVSGGSIRRGGDYWAWIRQHPGKGLEWIGHVYYTGSTKYNPSFKDRATISVNTYKNQFSLKLSSVTAADTAVYYCARNYDTLTGYSYYYYGMDVWGQGTTVTVSS VL: DIQMTQSPSSLSASVGDRVTITCRASQSISSYLNWYQQKPGKAPKLLIYGARRLGSGVPSRFSGSGSGTDFTLTISSLQPEDFATYYCQQYSSLPVTFGGGTKVEIKR
0.72

Consider next the binder LIBC681737-1 (yeast-displayed Fab) (Fab, V domains shown, Original yeast clone without the LC P12S germline reversion; Monovalent Fab on yeast) VH: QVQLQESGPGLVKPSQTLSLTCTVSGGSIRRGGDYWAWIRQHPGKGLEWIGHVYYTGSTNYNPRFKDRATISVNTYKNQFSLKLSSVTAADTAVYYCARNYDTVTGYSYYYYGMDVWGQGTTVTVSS VL: DIQMTQSPSSLPASVGDRVTITCRASQSISSYLNWYQQKPGKAPKLLIYSARRLASGVPSRFSGSGSGTDFTLTISSLQPEDFATYYCQQYYHPPITFGGGTKVEIKR in the same way.
0.73

Consider next the binder LIBC681594-1 (yeast-displayed Fab) (Fab, V domains shown) VH: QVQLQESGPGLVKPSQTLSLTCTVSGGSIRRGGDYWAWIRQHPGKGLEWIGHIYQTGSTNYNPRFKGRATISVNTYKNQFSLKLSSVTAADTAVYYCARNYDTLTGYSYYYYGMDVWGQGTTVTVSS VL: DIQMTQSPSSLSASVGDRVTITCRASQSISSYLNWYQQKPGKAPKLLIYKARKLSSGVPSRFSGSGSGTDFTLTISSLQPEDFATYYCQQFGSMPLTFGGGTKVEIKR in the same way.
0.83

Consider next the binder LIBC680562-1 (yeast-displayed Fab) (Fab, V domains shown) VH: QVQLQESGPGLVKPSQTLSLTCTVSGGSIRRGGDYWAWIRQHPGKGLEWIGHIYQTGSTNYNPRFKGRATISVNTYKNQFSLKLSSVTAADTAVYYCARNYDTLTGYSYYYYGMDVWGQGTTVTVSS VL: DIQMTQSPSSLSASVGDRVTITCRASQSISSYLNWYQQKPGKAPKLLIYSARRLSSGVPSRFSGSGSGTDFTLTISSLQPEDFATYYCQQYAKSPITFGGGTKVEIKR in the same way.
0.68

# evaluate next
# Relative binding fold change compared to LIBC528116 (Fab) lookup, item LIBC680773-1 (yeast-displayed Fab) (Fab, V domains shown) VH: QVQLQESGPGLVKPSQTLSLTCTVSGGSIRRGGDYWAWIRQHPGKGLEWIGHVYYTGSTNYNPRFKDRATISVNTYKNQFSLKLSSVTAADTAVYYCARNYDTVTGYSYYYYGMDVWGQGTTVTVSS VL: DIQMTQSPSSLSASVGDRVTITCRASQSISSYLNWYQQKPGKAPKLLIYKARLLSSGVPSRFSGSGSGTDFTLTISSLQPEDFATYYCQQYSRLPLTFGGGTKVEIKR
0.75
